Ref: the Human Domainome abundance scans (Beltran et al. 2025)

B1: 3'-5' exoribonuclease 1, residues 65 to 114; numbered along this chain, Q8IV48 (parent)
chain: VYKEIAITNGCINRMSKEELRAKLSEFKLETRGVKDVLKKRLKNYYKKQK

Variants of: B1
Assay: abundance fitness (aPCA) (normalised: wild type 0, dead -1); higher = more abundant; growth selection in yeast, the domain comes from the species named
Details: Homo sapiens
property.label: abundance fitness

mutant_code=L29G test_result=-0.875
mutant_code=A22R test_result=-0.031
mutant_code=R32A test_result=-0.383
mutant_code=G10T test_result=-0.121
mutant_code=T31V test_result=-0.106
mutant_code=G10H test_result=-0.18
mutant_code=V1Y test_result=-0.083
mutant_code=V1D test_result=-0.078
mutant_code=K3V test_result=-0.294
mutant_code=V34W test_result=-0.352
mutant_code=G33R test_result=-0.739
mutant_code=K40Y test_result=-0.7
mutant_code=F27S test_result=-0.307
